assayed.system: SUCR1 mutants (variant named in the endpoint) (Homo sapiens, UniProt Q9BXA5, F285A/F72Y/Y248F)
Construct: The full-length human SUCR1 and mutations were fused after the HA signal peptide and Flag tag; HA signal peptide (N); Flag (N)
Sequence (Q9BXA5 1-334 F72Y/Y248F/F285A): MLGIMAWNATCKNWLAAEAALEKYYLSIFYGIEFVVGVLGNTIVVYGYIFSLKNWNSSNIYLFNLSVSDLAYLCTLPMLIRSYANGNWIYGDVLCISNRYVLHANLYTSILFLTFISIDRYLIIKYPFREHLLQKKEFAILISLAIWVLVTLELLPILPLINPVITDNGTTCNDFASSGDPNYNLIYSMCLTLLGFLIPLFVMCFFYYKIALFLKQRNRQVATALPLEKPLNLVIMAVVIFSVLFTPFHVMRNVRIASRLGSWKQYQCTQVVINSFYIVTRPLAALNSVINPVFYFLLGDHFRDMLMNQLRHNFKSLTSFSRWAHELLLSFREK
method.summary: Calcium mobilization assay, SUCR1 mutants in HEK293 stably expressing Gα16
reported.conditions: SUCR1 F72Y-F285A-Y248F
quantity.name: EC50
Field note: include the unit after the figure.

Looking up O=C(O)CCC(=O)O [SUC, succinate] , I found its EC50 recorded as 2700 µM

* * *

assayed.system: OXGR1 (Homo sapiens)
method.summary: Calcium mobilization assay (Fluo-4 AM), wild-type OXGR1 in HEK293
reported.conditions: EC50, OXGR1 WT; Gq-mediated calcium signaling (Fig. 1D, Appendix Table S1)
quantity.name: pEC50
Lab note: report pEC50 as minus log10 of the concentration in molar units, number only.

pEC50 in this record for C=C(CC(=O)O)C(=O)O [ITA, itaconate] : 4.08

* * *

Tested on: OXGR1 mutants (variant named in the endpoint)
method.summary: Calcium mobilization assay, OXGR1 mutants in HEK293
reported.conditions: OXGR1 H281A
quantity.name: EC50 (µM)
Respond with the bare value in µM.

Record summary for O=C(O)CCC(=O)O [SUC, succinate] : reported EC50 = 4500

Reported EC50 ( C=C(CC(=O)O)C(=O)O [ITA, itaconate] ) = 670

* * *

The compounds listed here are annotated with their pEC50.
Test system: OXGR1 mutants (variant named in the endpoint)
method.summary: Calcium mobilization assay, OXGR1 mutants in HEK293;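 further: human OXGR1 variants transiently expressed in HEK293 cells, with intracellular calcium read out by Fluo-4 AM fluorescence, measured 24 h after transfection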
reported.conditions: OXGR1 F113A
pEC50: −log10 of the molar value. Structures can show the parent of a compound that is named as a salt.

Example compounds with recorded pEC50:
>>> print(df.to_string())
                              compound  quantity_name  result
0  C=C(CC(=O)O)C(=O)O [ITA, itaconate]          pEC50  < 3.00
1      O=C(O)/C=C\C(=O)O [MA, maleate]          pEC50  < 3.00

Form: compound = O=C(O)CCC(=O)O [SUC, succinate] ; pEC50 = < 3.00

* * *

assayed.system: SUCR1 mutants (variant named in the endpoint) (Homo sapiens, UniProt Q9BXA5, F72Y)
Construct: The full-length human SUCR1 and mutations were fused after the HA signal peptide and Flag tag; HA signal peptide (N); Flag (N); expressed in transfected cells; host or cells: HEK293 stably expressing Gα16 (pcDNA6.0, transient electroporation)
method.summary: Calcium mobilization assay, SUCR1 mutants in HEK293 stably expressing Gα16
Assay type: cell-based
reported.conditions: SUCR1 F72Y
quantity.name: EC50
Returns: string containing the number followed by the unit.

// EC50 value for O=C(O)CCC(=O)O [SUC, succinate] : 1800 µM
